target_desc: Aspartate--tRNA(Asp/Asn) ligase (Mycobacterium tuberculosis (strain ATCC 25618 / H37Rv)) (UniProt P9WFW3); note: in the data most compounds retested in dose-response had high values
Sequence (P9WFW3 whole entry): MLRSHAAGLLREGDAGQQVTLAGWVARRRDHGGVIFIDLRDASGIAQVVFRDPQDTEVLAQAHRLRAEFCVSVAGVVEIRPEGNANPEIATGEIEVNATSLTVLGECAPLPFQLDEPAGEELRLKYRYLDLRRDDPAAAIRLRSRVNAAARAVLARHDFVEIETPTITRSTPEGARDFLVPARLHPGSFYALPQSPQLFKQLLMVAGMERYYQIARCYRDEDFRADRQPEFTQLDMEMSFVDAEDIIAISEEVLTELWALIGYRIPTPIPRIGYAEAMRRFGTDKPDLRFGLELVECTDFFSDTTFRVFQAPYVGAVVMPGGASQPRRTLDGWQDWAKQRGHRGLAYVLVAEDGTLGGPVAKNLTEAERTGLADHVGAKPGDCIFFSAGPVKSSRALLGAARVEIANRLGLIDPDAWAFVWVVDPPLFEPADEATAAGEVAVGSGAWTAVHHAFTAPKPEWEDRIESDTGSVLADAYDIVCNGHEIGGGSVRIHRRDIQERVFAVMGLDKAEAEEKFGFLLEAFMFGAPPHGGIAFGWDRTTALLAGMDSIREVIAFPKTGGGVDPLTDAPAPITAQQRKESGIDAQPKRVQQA
assay_procedure: Assay for Asp RNA synthetase-1 from Mycobacterium tuberculosis
Format: functional
Parameters: scale not given: direction of the effect not stated beside the values
experimental_conditions: 30 µM
readout: Percent Effect (%)
One number for each entry, in %.

1. CC(=O)NC1CCCN(C(=O)c2ccc(Br)cc2O)C1 (configuration not stated) ... 2.34
2. COc1cccc(N2CCN(CC(O)c3cc(C)ccc3C)CC2)c1 (configuration not stated) ... 9.16
3. Cc1noc(C(C)C)c1C(=O)NCCCOC(C)C ... 2.01
4. COc1ccc(C(=O)N(C)Cc2nnc3ccccn23)c(OC)c1 ... 0.49
5. CC(=O)Nc1nc(C2CCN(CC(N)=O)CC2)cs1 ... -7.79
6. Cn1c(CN2CCCC2)nnc1C1CCCN(C(=O)C2CCOCC2)C1 (configuration not stated) ... 2.71
7. CN(Cc1ncc[nH]1)S(=O)(=O)c1cccc(C(=O)N2CCOCC2)c1 ... 8.16
8. O=C(COc1coc(CN2CCCCC2)cc1=O)NCc1ccccc1 ... 10.2
9. O=C(NCC1(N2CCOCC2)CCSC1)Nc1ccc(F)cc1 (configuration not stated) ... 2
10. O=C(c1ccsc1)N1CCc2c(CNc3ncccn3)n[nH]c2C1 ... -0.641

// for each compound below, give its Percent Effect
1. O=C1CCC2(CCN(Cc3cc(F)ccc3Cl)CC2)CN1C1CCCC1
2. CCOc1cc(C)ccc1NC(=O)N(C)Cc1cnn(C)c1

1. 0.0575
2. 4.37

====

target_desc: Shiga toxin 2 (Escherichia coli O157:H7) (UniProt P09385+P09386)
assay_procedure: E. coli 0.157:H7 Shiga Toxin SOP - stx2 screening assay
Type: functional
Set-up: scale not given: direction of the effect not stated beside the values
experimental_conditions: 30 µM
readout: Percent Effect (%)
Answers are plain numbers, in %.

Observe how each entry below is paired with its result.
1. Cc1cnc(CN(C)CC2CCCN2c2cccnn2)cn1 (stereo unspecified) ... 7.46
2. O=C(Cc1c[nH]c2ccccc12)N1CCN(C(=O)c2ccoc2)CC1 ... -16.5
3. CC(C)OCc1ncn2c1CN(Cc1cccs1)CCC2 ... -0.247
4. O=C(c1ccsc1)N1CCc2c(COCc3ccncc3)cncc2C1 ... -68.5
5. NC(=O)c1ccc(S(=O)(=O)NC(=O)COc2ccc3c(c2)CCC3)cc1 ... 13.5
6. CC(C)C1CN(c2ncccn2)CCC(=O)N1Cc1ccc(F)cc1 (stereo unspecified) ... 3.8
7. COCC(=O)N1CCC(c2nc3ccc(-c4ccccc4)cn3n2)CC1 ... -19.6
8. COc1ccc(C(C)=O)c(OCC(=O)NC(C)c2ccc(F)cc2)c1 (stereo unspecified) ... -1.68
9. CN(C)C[C@H]1OC[C@@H]2CCN(C(=O)c3cccn3C)C[C@@H]21 ... -9.5
10. O=C(C1CCOCC1)N1CCO[C@H]2[C@@H](OCc3ccncc3)CC[C@@H]21 ... 22.7

Request: Percent Effect, test system Shiga toxin 2 (Escherichia coli O157:H7) (UniProt P09385+P09386), entry "CC(C)Cc1nc(OCC(=O)O)c(C#N)c2c1CCC2"
-5.61

====

target_desc: Aspartate--tRNA(Asp/Asn) ligase (Mycobacterium tuberculosis (strain ATCC 25618 / H37Rv)); note: in the data most compounds retested in dose-response had high values
assay_procedure: Assay for Asp RNA synthetase-1 from Mycobacterium tuberculosis
Type: functional
Set-up: scale not given: direction of the effect not stated beside the values
experimental_conditions: 30 µM
For each record, write down the corresponding Percent Effect.
Answers are plain numbers, in %.

Observe how each entry below is paired with its result.
1. COc1ccc(-c2nnc(SCC(=O)NCC(C)C)[nH]2)c(OC)c1 ... 6.14
2. Cc1ccc(CN2CCc3ncnc(-c4cccnc4)c3CC2)o1 ... 4.98
3. CCOc1ccc(Cl)cc1C1CCCN1 (stereo unspecified) ... 3.74

// for each compound below, give its Percent Effect
1. CC(NC(=O)NCC1(O)CCC1)c1ccc(OCC2CC2)c(F)c1 (stereo unspecified)
2. NCC1(c2cccc(C(F)(F)F)c2)CCOCC1

1. -6.14
2. 0.69

Given the entry COCCC1(CO)CCCN(Cc2ccc(F)c(C)c2)C1 (stereo unspecified) , report its measured Percent Effect.
6.95

====

target_desc: Shiga toxin 2 (Escherichia coli O157:H7) (UniProt P09385+P09386)
assay_procedure: E. coli 0.157:H7 Shiga Toxin SOP - stx2 screening assay
Format: functional
Parameters: scale not given: direction of the effect not stated beside the values
experimental_conditions: 30 µM
Would you please tag the item Satisfied when its Percent Effect is -10% or above, and Not satisfied when it is below?

# check: Percent Effect of Cc1nc(CC(=O)N2CCCCC2c2ccn3ccnc3n2)cs1 (centres undefined) is greater than or equal to -10%
Satisfied

# check: Percent Effect of "O=C1NCCN(CC2CC2)C12CCN(Cc1ccc3c(c1)OCO3)CC2" is greater than or equal to -10%
Not satisfied

# check: Percent Effect of O=C(NCC1CCS(=O)(=O)C1)c1sccc1-c1ccc(F)cc1 (centres undefined) is greater than or equal to -10%
Satisfied

# check: Percent Effect of "Cc1nc(N2CCCCC2)ncc1C(=O)N1CC(C)(C)[C@@](C)(O)C1" is greater than or equal to -10%
Satisfied

# check: Percent Effect of O=C(c1ccc2c(c1)CCCC2)N1CCOCC1c1ncon1 (centres undefined) is greater than or equal to -10%
Satisfied

# check: Percent Effect of "Cc1cnccc1N1CCCN(C(=O)CCCc2cn[nH]c2)CC1" is greater than or equal to -10%
Not satisfied

# check: Percent Effect of "Cc1noc(C)c1CN1CC[C@H]2OCC[C@@H](C(=O)NCC3CC3)[C@@H]2C1" is greater than or equal to -10%
Not satisfied

# check: Percent Effect of "O=C(NCc1ccccn1)N(Cc1ccc(F)cc1F)C1CC1" is greater than or equal to -10%
Satisfied

# check: Percent Effect of "Cc1noc(C)c1CN(C)C(=O)c1ccc(NC2CC2)nc1" is greater than or equal to -10%
Satisfied

# check: Percent Effect of CNCC(=O)N1CCC(c2ccnc(Nc3ccc(C)cn3)n2)C1 (centres undefined) is greater than or equal to -10%
Not satisfied

# check: Percent Effect of c1cn2c(n1)CN(CC1CC1)CC(CN1CCOCC1)C2 (centres undefined) is greater than or equal to -10%
Not satisfied

# check: Percent Effect of "O=S(=O)(Cc1ccccc1)N1CCCn2cnc(CN3CCCC3)c2C1" is greater than or equal to -10%
Satisfied

# check: Percent Effect of "CC(C)c1noc(CN2CCN(C(=O)c3ccccc3F)CC2)n1" is greater than or equal to -10%
Satisfied

# check: Percent Effect of "COc1ccc(CN2CCc3ncnc(OC(C)C)c3CC2)cc1" is greater than or equal to -10%
Satisfied

# check: Percent Effect of "O=C(NCCc1ccn(-c2ccccc2)n1)N1CCC1" is greater than or equal to -10%
Not satisfied

# check: Percent Effect of Cc1csc(CNC(=O)NCC(O)c2cccc(Cl)c2)n1 (centres undefined) is greater than or equal to -10%
Not satisfied

# check: Percent Effect of "CCC(=O)N1CCC(c2nnc(Cn3cncn3)n2C2CC2)CC1" is greater than or equal to -10%
Satisfied

# check: Percent Effect of COc1ccc2cc(C3CN(C(=O)C4CCOCC4)CCO3)ccc2c1 (centres undefined) is greater than or equal to -10%
Satisfied

# check: Percent Effect of c1ccc2oc(CCCN3CCOC(Cn4cccn4)C3)nc2c1 (centres undefined) is greater than or equal to -10%
Satisfied

# check: Percent Effect of "CN(c1cccnn1)C1CCN(C(=O)c2ccc3c(c2)COC3)CC1" is greater than or equal to -10%
Satisfied

====

target_desc: Aspartate--tRNA(Asp/Asn) ligase (Mycobacterium tuberculosis (strain ATCC 25618 / H37Rv)) (UniProt P9WFW3); note: in the data most compounds retested in dose-response had high values
assay_procedure: Assay for Asp RNA synthetase-1 from Mycobacterium tuberculosis
Type: functional
Parameters: scale not given: direction of the effect not stated beside the values
experimental_conditions: 30 µM
readout: Percent Effect (%)
Numbers only, in %.

// for each molecule below, give its Percent Effect
1. Cc1nc(C)n(CC2CN(CC(=O)Nc3cccnc3)CCO2)n1 (configuration not stated)
2. Cc1nccc([C@@H]2C[C@@H]3CCN(S(C)(=O)=O)C[C@H]3O2)n1
3. CC(C)CCc1noc(CN2CCCN(C(=O)c3ccco3)CC2)n1
4. O=C1NCCN1C1CCN(CCc2cccs2)CC1
5. CC(C)CNc1nc(C(=O)/N=c2\[nH]nc(C(C)(C)C)s2)cs1

1. -1.48
2. 2.92
3. -1.32
4. -0.519
5. -0.96

// for each molecule below, give its Percent Effect
1. CCOC1CCCN(C(=O)c2sccc2-n2cnnn2)C1 (configuration not stated)
2. CCOC(=O)NC(CNC(=O)CCc1ccccn1)CC(C)C (configuration not stated)
3. COCCNC(=O)Nc1ccc(F)c(C(N)=O)c1
4. CN1CC2(CCN(Cc3ccoc3)CC2)COc2ccccc2S1(=O)=O

1. -4.21
2. 1.17
3. 3.91
4. -0.268

// for each molecule below, give its Percent Effect
1. CN(Cc1ccco1)C(=O)CN1CCCC(Cn2cncn2)C1 (configuration not stated)
2. Cc1cc(C)c(CNC(=O)NCC2CCCO2)c(=O)[nH]1 (configuration not stated)
3. Cc1cc(CN2CCN(C(=O)NC(C)Cn3ccnc3)CC2)no1 (configuration not stated)

-1.04
-3.97
-1.75
